Hello, the source for this data is ChEMBL document CHEMBL3217582, in case you need it.

- System: HCT-116
- method.summary: Growth inhibition of human HCT116 cells overexpressing CHKA2 after 72 hrs by sulforhodamine assay
- Assay type: functional
- particulars: HCT-116, 72 h
readout: GI50 (µM)
All answers are understood in µM, so give the number only.

Use these answered entries as a reference point.
CN(C)c1cc[n+](CCCCCCCCC[n+]2ccc(N(C)C)cc2)cc1
2.6
CN(C)c1cc[n+](CCCCCCCCCCCCn2cnc3c(N)ncnc32)cc1
4.1
CN(C)c1cc[n+](CCCCCCCCCCCC[n+]2ccc(N(C)C)cc2)cc1
0.64
CN(C)c1cc[n+](CCCCCCCCCCCCCC[n+]2ccc(N(C)C)cc2)cc1
0.29
CN(C)c1cc[n+](CCCCCCCCCCC[n+]2ccc(N(C)C)cc2)cc1
2
CN(C)c1cc[n+](CCCCCCCCCCCCn2cnc3ccccc32)cc1
0.69
CN(C)c1cc[n+](CCCCCCCC[n+]2ccc(N(C)C)cc2)cc1
2.5

Field: GI50 (HCT-116). Entry: `CN(C)c1cc[n+](CCCCCCCCCC[n+]2ccc(N(C)C)cc2)cc1`
2.8

---

- method.summary: Inhibition of recombinant delta49N CHKA2 (unknown origin) assessed as ADP formation using choline as substrate by enzyme coupled assay
- Design: species or system Homo sapiens
readout: pIC50
Hey, just a heads up that pIC50 is the negative log base 10 of the concentration in molar.

CN(C)c1cc[n+](CCCCCCCCCCCCn2cnc3c(N)ncnc32)cc1
6.10
CN(C)c1cc[n+](CCCCCCCC[n+]2ccc(N(C)C)cc2)cc1
5.57

Okay, now this compound:
Consider the compound `CN(C)c1cc[n+](CCCCCCCCCCCC[n+]2ccc(N(C)C)cc2)cc1` and give its measured pIC50.
6.57
